# measured on: pooled human IgG (human IgG1, 2, 3 and 4) (human)
# measurement protocol: cell-based or functional assay; also: test concentration or dose not given here
experimental endpoint: Enzyme Activity Endpoint Assay: IgG (ng/µL)
State just the number; it will be interpreted in ng/µL.

• PRT-395 (enzyme) MVTSVWTKGVTPPADFTQGEDVFHAPYVANQGWYDITKTFNGKDDLLCGAATAGNMLHWWFDQNKEYIEAYLKKHPEKQKIMFGDQELLDVRKAINTKGSQKNSELFNYFRDKAFPTLSARRLGVMPDLVLDMFINGYYLNVTKTQTTDVNRTYQEKDKRGGIFDAVFTRGDQSKLLTSRHDFKEKGLKEISDLIKQELTEGKALGLSHTYANVRINHVINLWGADFDSDGNLKAIYVTDSDSNASIGMKKYFVGVNSAGKVAISAKEIKEDNIGAQVLGLFTLSTGQDIWNQTN = 0

Shift focus to the following entry.
*Q* Write down Enzyme Activity Endpoint Assay: IgG measured for item PRT-426 (enzyme) MTITSVWTKGVTPPTPEDFRYNNEDVLHAPYVANQGWYDITKTFDGKDNLLCGAATAGNMLHWWFDQNKEEIERYLKKHPEKQKIIFNNQELFDVKAAIDTKDSQTNSKLFNYFRDKAFPNLSARQLGVFPDLVLDMFINGYYLNLGKTQSTDVNRPYQDKDKRGGIFDAVFTRGDQTTLLTARHDLKNKGLNEISDLIKQELTEGKALALSHTYANVRINHVINLWGADFDAEGNLIAIYVTDSDANASIGMKKYFVGVNANGKVAISAKKIEGDNIGAQVLGLFTLSTGQDIWQKLS
*A* 243
